- EXPERIMENTAL SYSTEM: Grb2 SH2 (UniProt P62993)
- ASSAY NAME: SH2 binding enrichment of the phosphorylated peptide, bacterial display (enrichment ratio); higher = better substrate or ligand; peptides without Tyr show the background;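 also: peptide library displayed on the E. coli surface as eCPX fusions, selected cells deep-sequenced, score is each peptide's frequency after selection divided by its frequency in the input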
MEASURE: SH2 binding enrichment

AMGPVYQAAAL [HYOU1_Y421_A419P]    0.736
KVASVYEAPGF [NT5C_Y65]    0.948
RGEAVYSRDCV [XPC_Y676]    0.788
FFRKVYHLASV [RBL1_Y796_YF]    0.979
PVFEVYPLLNC [GATA1_Y78_Q76E]    0.945
ASGKFYAMKIL [AKT3_Y174_YF]    1
NMSRIYSTAKV [ACE_Y151]    0.901
LKMLVYLDMSK [LRRC7_Y234]    0.757

[1] LARDMYDKEFF [MET_Y1230_YF]
[2] ILILKYPIEHG [ACTA1_Y71_T68I]
Task: Which value of SH2 binding enrichment is greater, the one for 1 or the one for 2 ? Refer to your chosen entry by its label in the reply.
Output: 2
